B1: CAMK2A (parent)
chain: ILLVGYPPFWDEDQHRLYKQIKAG

- Variants of: B1
- experiment-notes: protein stability index of a GFP-peptide fusion (GPS, HEK-293T) (PSI 1-6); higher = more stable;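 also: lentivirally expressed fusions sorted by FACS into six bins by GFP to DsRed ratio, PSI derived from sequencing read proportions per bin multiplied by bin number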
- assay-context: c terminus: a fixed tail appended
The variants listed here are annotated with their protein stability index.
endpoint-label: protein stability index

[[record]]
mutation_string = "L17E"
test_result = 2.09

[[record]]
mutation_string = "E12R"
test_result = 2.23

[[record]]
mutation_string = "E12M"
test_result = 3.3

[[record]]
mutation_string = "L2G"
test_result = 2.4

[[record]]
mutation_string = "I1P"
test_result = 2.27

[[record]]
mutation_string = "G5M"
test_result = 2.53

[[record]]
mutation_string = "P7M"
test_result = 2.9

[[record]]
mutation_string = "Y18W"
test_result = 2.45

[[record]]
mutation_string = "R16F"
test_result = 2.2

[[record]]
mutation_string = "R16C"
test_result = 2.16

[[record]]
mutation_string = "D13C"
test_result = 2.36

[[record]]
mutation_string = "G5D"
test_result = 1.55

[[record]]
mutation_string = "Y18I"
test_result = 2.21

[[record]]
mutation_string = "E12A"
test_result = 1.49

[[record]]
mutation_string = "K22E"
test_result = 1.96

[[record]]
mutation_string = "Q14V"
test_result = 2.89

[[record]]
mutation_string = "P8M"
test_result = 1.89

[[record]]
mutation_string = "F9I"
test_result = 1.62

[[record]]
mutation_string = "D13R"
test_result = 2.19

[[record]]
mutation_string = "A23K"
test_result = 2.1

[[record]]
mutation_string = "R16H"
test_result = 2.12

[[record]]
mutation_string = "Q14A"
test_result = 2.65

